Tested on: tet operator sequence
PROTOCOL: β-galactosidase activity of a tetracycline-regulated promoter in transformed E. coli with revTetR, in the presence and absence of anhydrotetracycline (atc)
Assay type: cell-based, Escherichia coli
MEASUREMENT CONTEXT: RevTetR isolate cultured in the absence of anhydrotetracycline (ATC)
VALUE KIND: β-Galactosidase Activity, Cultured Without ATC

Consider the molecule shown here: TetRrev96/99-4: revTetR(BD) G96P V99S (protein, Modified tetracycline repressor, revTetR(BD) G96P V99S) MSRLDKSKVINSALELLNEVGIEGLTTRKLAQKLGVEQPTLYWHVKNKRALLDALAVEILARHHDYSLPAAGESWQSFLRNNAMSFRRALLRYRDPAKSHLGTRPDEKQYDTVETQLRFMTENGFSLRDGLYAISAVSHFTLGAVLEQQEHTAALTDRPAAPDENLPPLLREALQIMDSDDGEQAFLHGLESLIRGFEVQLTALLQIV What is its recorded β-Galactosidase Activity, Cultured Without ATC? 109.291
